- tested-target: T1, recombinant rat MASP1 active protease (amino acids 302-704, C-terminal His Tag) (rat, UniProt Q8CHN8 302-704)
- T1 sequence: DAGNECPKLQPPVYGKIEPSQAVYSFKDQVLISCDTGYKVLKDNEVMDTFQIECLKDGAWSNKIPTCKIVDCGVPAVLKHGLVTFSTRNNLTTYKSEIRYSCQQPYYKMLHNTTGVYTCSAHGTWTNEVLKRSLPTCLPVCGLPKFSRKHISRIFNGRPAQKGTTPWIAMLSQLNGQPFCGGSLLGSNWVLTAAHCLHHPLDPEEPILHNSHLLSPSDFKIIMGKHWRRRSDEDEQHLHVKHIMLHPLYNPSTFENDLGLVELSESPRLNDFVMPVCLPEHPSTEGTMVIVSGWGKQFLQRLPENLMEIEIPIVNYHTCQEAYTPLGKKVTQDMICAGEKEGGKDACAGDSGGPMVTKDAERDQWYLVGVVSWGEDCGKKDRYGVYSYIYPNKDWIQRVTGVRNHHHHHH
- assay-name: cell-based or functional assay
Numbered stars: 1 amine (or outer) side, 2 acyl side, 3 side chain; on linkers, the order of the positions; unused ones are H or OH. Bridge positions count the residues as written; N and C are the ends. Square brackets hold non-standard residues; d marks the D form. Primed or numbered codes have the meaning given here. Ends that are not written are not given here. Leu(4-F)″ = 4-fluoro-L-leucine, CC(C)(F)C[C@H](N[*:1])C(=O)[*:2]; (R)‑Pyrrolidine‑3‑acetic acid = O=C(C[C@H]1CCN([*:1])C1)[*:2]; Oic = O=C(O)[C@@H]1C[C@@H]2CCCC[C@@H]2N1; tBuAla = CC(C)(C)C[C@H](N)C(=O)O; Pen = CC(C)(S)[C@H](N)C(=O)O; Sar = CNCC(=O)O
Here the recorded rat MASP1 IC50 is given for each entry.

{"binder": "[Sar]ICSRSLP[Oic]I[Pen]IP[(R)‑Pyrrolidine‑3‑acetic acid]-OH (disulfide 3-11; N-terminus assumed; SMILES CC[C@H](C)[C@H](NC(=O)CNC)C(=O)N[C@H]1CSSC(C)(C)[C@@H](C(=O)N[C@H](C(=O)N2CCC[C@H]2C(=O)N2CC[C@H](CC(=O)O)C2)[C@@H](C)CC)NC(=O)[C@H]([C@@H](C)CC)NC(=O)[C@@H]2C[C@@H]3CCCC[C@@H]3N2C(=O)[C@@H]2CCCN2C(=O)[C@H](CC(C)C)NC(=O)[C@H](CO)NC(=O)[C@H](CCCNC(=N)N)NC(=O)[C@H](CO)NC1=O) [Example 530: ((N-Me)G)-IC+SRSLP-(Oic)-I-(Pen)+IP-((R)-Pyrrolidine-3-acetic acid)-OH]", "display-unit": "nM", "rat MASP1 IC50": 23.3}
{"binder": "[Sar]ICSRSLP[Oic]I[Pen]IPDD-OH (disulfide 3-11; N-terminus assumed; SMILES CC[C@H](C)[C@H](NC(=O)CNC)C(=O)N[C@H]1CSSC(C)(C)[C@@H](C(=O)N[C@H](C(=O)N2CCC[C@H]2C(=O)N[C@@H](CC(=O)O)C(=O)N[C@@H](CC(=O)O)C(=O)O)[C@@H](C)CC)NC(=O)[C@H]([C@@H](C)CC)NC(=O)[C@@H]2C[C@@H]3CCCC[C@@H]3N2C(=O)[C@@H]2CCCN2C(=O)[C@H](CC(C)C)NC(=O)[C@H](CO)NC(=O)[C@H](CCCNC(=N)N)NC(=O)[C@H](CO)NC1=O) [Example 466: ((N-Me)G)-IC+SRSLP-(Oic)-I-(Pen)+IPDD-OH]", "display-unit": "nM", "rat MASP1 IC50": 17.6}
{"binder": "AICSRS[tBuAla]P[Oic]ICIPD-NH2 (disulfide 3-11; N-terminus assumed; SMILES CC[C@H](C)[C@H](NC(=O)[C@H](C)N)C(=O)N[C@H]1CSSC[C@@H](C(=O)N[C@H](C(=O)N2CCC[C@H]2C(=O)N[C@@H](CC(=O)O)C(N)=O)[C@@H](C)CC)NC(=O)[C@H]([C@@H](C)CC)NC(=O)[C@@H]2C[C@@H]3CCCC[C@@H]3N2C(=O)[C@@H]2CCCN2C(=O)[C@H](CC(C)(C)C)NC(=O)[C@H](CO)NC(=O)[C@H](CCCNC(=N)N)NC(=O)[C@H](CO)NC1=O) [Example 234: AIC+SRS-((tBu)A)-P-(Oic)-I-C+IPD-NH2]", "display-unit": "nM", "rat MASP1 IC50": 78}
{"binder": "AICSRS[Leu(4-F)″]PPICIPD-NH2 (disulfide 3-11; N-terminus assumed; SMILES CC[C@H](C)[C@H](NC(=O)[C@H](C)N)C(=O)N[C@H]1CSSC[C@@H](C(=O)N[C@H](C(=O)N2CCC[C@H]2C(=O)N[C@@H](CC(=O)O)C(N)=O)[C@@H](C)CC)NC(=O)[C@H]([C@@H](C)CC)NC(=O)[C@@H]2CCCN2C(=O)[C@@H]2CCCN2C(=O)[C@H](CC(C)(C)F)NC(=O)[C@H](CO)NC(=O)[C@H](CCCNC(=N)N)NC(=O)[C@H](CO)NC1=O) [Example 248: AIC+SRS-((4-Fluoro)L)-PPIC+IPD-NH2]", "display-unit": "nM", "rat MASP1 IC50": 260}
